- Assay Details: activity coefficient (dimensionless); of the first substance listed, at infinite dilution; xn = mol fraction of the nth substance listed
- Study Conditions: 328.15 K; 101 kPa; Liquid; Chromatography; x1 = 0
Quantity Kind: activity coefficient

// worked examples, activity coefficient included
[[record]]
compound = "C=CCCC [1-pentene] + CCCCCC[n+]1ccc2ccccc2c1.N#C[S-]"
quantity_kind = "activity coefficient"
quantitative_result = 14.5

[[record]]
compound = "C1CCCCCC1 [cycloheptane] + CCCCCC[n+]1ccc2ccccc2c1.N#C[S-]"
quantity_kind = "activity coefficient"
quantitative_result = 14.5

[[record]]
compound = "CCCCO [butan-1-ol] + CCCCCC[n+]1ccc2ccccc2c1.N#C[S-]"
quantity_kind = "activity coefficient"
quantitative_result = 0.846

[[record]]
compound = "CC(C)OC(C)C [diisopropyl ether] + CCCCCC[n+]1ccc2ccccc2c1.N#C[S-]"
quantity_kind = "activity coefficient"
quantitative_result = 20.5

[[record]]
compound = "CCCCCCC [heptane] + CCCCCC[n+]1ccc2ccccc2c1.N#C[S-]"
quantity_kind = "activity coefficient"
quantitative_result = 42.5


[P] C#CCCCCCC [1-octyne] + CCCCCC[n+]1ccc2ccccc2c1.N#C[S-]
[Q] C#CCCCC [1-hexyne] + CCCCCC[n+]1ccc2ccccc2c1.N#C[S-]
**Q:** Pick one: P or Q . Which has the bigger activity coefficient number? In your reply, give the label of the chosen option.
**A:** P

[1] C=CCCCC [hex-1-ene] + CCCCCC[n+]1ccc2ccccc2c1.N#C[S-]
[2] C1CCOC1 [tetrahydrofuran] + CCCCCC[n+]1ccc2ccccc2c1.N#C[S-]
**Q:** # return whichever of 1 and 2 has the smaller activity coefficient In your reply, give the label of the chosen option.
**A:** 2
(2: 1.46, 1: 16.9)

[I] CC1CCCCC1 [methylcyclohexane] + CCCCCC[n+]1ccc2ccccc2c1.N#C[S-]
[II] CCCC(C)=O [pentan-2-one] + CCCCCC[n+]1ccc2ccccc2c1.N#C[S-]
[III] O [water] + CCCCCC[n+]1ccc2ccccc2c1.N#C[S-]
[IV] C1CCCCC1 [cyclohexane] + CCCCCC[n+]1ccc2ccccc2c1.N#C[S-]
[V] C=CCCCCCCCC [1-decene] + CCCCCC[n+]1ccc2ccccc2c1.N#C[S-]
**Q:** Rank items: key activity coefficient, increasing. List the labels, following the order given in the request.
**A:** III, II, IV, I, V
(III: 0.401, II: 2.1, IV: 13.3, I: 19.8, V: 46.3)
